test_description: Serum drug levels after single dose in mice
Assay type: in vivo
condition_summary: mouse, single dose 5 mg/kg, 24 hours, read-out: serum drug level
Numbered stars: 1 amine (or outer) side, 2 acyl side, 3 side chain; on linkers, the order of the positions; unused ones are H or OH. Bridge positions count the residues as written; N and C are the ends. Square brackets hold non-standard residues; d marks the D form. Peptide text beside a SMILES is read from it. * marks the point of attachment. hTyr(3S-OH,4S-OH,3'-OSO3H) = N[C@H](C(=O)O)[C@H](O)[C@@H](O)c1ccc(O)c(OS(=O)(=O)O)c1; Orn(4R-OH,5R-OH) = O=C([C@H](C[C@@H](O)[C@@H](O)N[*:3])N[*:1])[*:2]; Pro(3S-OH,4S-Me) = C[C@H]1CN[C@H](C(=O)O)[C@H]1O; X1 = CCCCCOc1ccc(-c2cc(-c3ccc(C(=O)*)cc3)no2)cc1; Gln(3R-OH) = NC(=O)C[C@@H](O)[C@H](N)C(=O)O; Hyp = O=C(O)[C@@H]1C[C@@H](O)CN1
measured_property: concentration at 24 h

Please give the measured concentration at 24 h for this compound: CCCCCOc1ccc(-c2cc(-c3ccc(C(=O)N[C@H]4C[C@@H](O)[C@@H](O)NC(=O)[C@@H]5[C@@H](O)[C@@H](C)CN5C(=O)[C@H]([C@H](O)CC(N)=O)NC(=O)[C@H]([C@H](O)[C@@H](O)c5ccc(O)c(OS(=O)(=O)O)c5)NC(=O)[C@@H]5C[C@@H](O)CN5C(=O)[C@H]([C@@H](C)O)NC4=O)cc3)no2)cc1 [micafungin] (X1-[Orn(4R-OH,5R-OH)]T[Hyp][hTyr(3S-OH,4S-OH,3'-OSO3H)][Gln(3R-OH)][Pro(3S-OH,4S-Me)]; lactam 1-C) ~2000 ng/mL
